Molecular target: CDK7/Cyclin H/MNAT1 (Homo sapiens)
Sequence (P50613 whole entry): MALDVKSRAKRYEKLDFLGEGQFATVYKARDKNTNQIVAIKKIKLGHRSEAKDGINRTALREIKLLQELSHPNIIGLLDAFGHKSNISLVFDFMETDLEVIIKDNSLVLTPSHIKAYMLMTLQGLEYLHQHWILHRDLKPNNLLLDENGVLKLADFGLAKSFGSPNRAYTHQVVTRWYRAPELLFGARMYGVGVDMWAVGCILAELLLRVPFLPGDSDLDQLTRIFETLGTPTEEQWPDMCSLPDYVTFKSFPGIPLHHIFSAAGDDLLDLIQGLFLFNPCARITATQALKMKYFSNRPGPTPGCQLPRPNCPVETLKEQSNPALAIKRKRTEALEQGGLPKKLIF
Sequence (P51946 whole entry partner): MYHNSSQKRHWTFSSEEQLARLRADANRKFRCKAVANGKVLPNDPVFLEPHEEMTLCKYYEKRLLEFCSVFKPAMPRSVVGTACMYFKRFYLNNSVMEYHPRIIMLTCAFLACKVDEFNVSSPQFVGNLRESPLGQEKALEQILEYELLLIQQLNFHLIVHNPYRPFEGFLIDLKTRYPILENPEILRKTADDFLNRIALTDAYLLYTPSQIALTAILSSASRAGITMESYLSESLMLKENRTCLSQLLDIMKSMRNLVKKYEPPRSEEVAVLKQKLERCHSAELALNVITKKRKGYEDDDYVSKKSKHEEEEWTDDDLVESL
Sequence (P51948 whole entry partner): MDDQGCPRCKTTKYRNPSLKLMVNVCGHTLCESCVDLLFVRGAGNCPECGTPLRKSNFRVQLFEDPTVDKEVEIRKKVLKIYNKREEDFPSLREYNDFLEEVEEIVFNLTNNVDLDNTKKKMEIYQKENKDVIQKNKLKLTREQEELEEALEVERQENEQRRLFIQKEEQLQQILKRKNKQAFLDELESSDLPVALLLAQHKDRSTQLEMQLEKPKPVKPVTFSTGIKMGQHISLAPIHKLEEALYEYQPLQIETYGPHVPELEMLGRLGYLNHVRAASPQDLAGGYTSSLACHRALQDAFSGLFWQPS
Experiment: Enzymatic assay for CDK7 (LANCE Ultra kinase assay, FRET based)
Details: ATP at Km
VALUE TYPE: IC50

The following compounds have reported results that may help.
C=CC(=O)Nc1ccc2c(-c3ccccc3CNc3nc(N4CCC(N)CC4)nc4c(C(C)C)cnn34)nccc2c1 = < 100 nM
C=C(C)C(=O)Nc1ccc2c(-c3ccccc3CNc3nc(N4CCC(N)CC4)nc4c(C(C)C)cnn34)nccc2c1 = < 100 nM
C=C(F)C(=O)Nc1ccc2c(-c3ccccc3CNc3nc(N4CCc5ncccc5C4)nc4c(C(C)C)cnn34)nccc2c1 = 100 to 1000 nM

Please list IC50 recorded for the compound CC(C)c1cnn2c(NCc3cccc(NC(=O)C4CCCN(C(=O)/C=C/CN(C)C)CC4)c3)nc(N3CCC(N)CC3)nc12 (racemic)
< 100 nM

Please list IC50 recorded for the compound C=C(F)C(=O)Nc1ccc2c(-c3ccccc3CNc3nc(NC4CCOC4)nc4c(C(C)C)cnn34)nccc2c1 (centres unmarked)
100 to 1000 nM

Please list IC50 recorded for the compound `C=C(F)C(=O)Nc1ccc2c(-c3ccccc3CNc3nc(N[C@H]4CCCNC4)nc4c(C(C)C)cnn34)nccc2c1`
< 100 nM

Please list IC50 recorded for the compound `CC(C)c1cnn2c(NCc3ccccc3-c3nccc4cc(NC(=O)/C=C/CN(C)C)ccc34)nc(S(C)(=O)=O)nc12`
< 100 nM

Please list IC50 recorded for the compound `COC/C=C/C(=O)Nc1ccc2c(-c3ccccc3CNc3nc(N4CCC(N)CC4)nc4c(C(C)C)cnn34)nccc2c1`
< 100 nM

Please list IC50 recorded for the compound `C=CC(=O)Nc1cccc(Oc2ccccc2CNc2nc(N3CCC(N)CC3)nc3c(C(C)C)cnn23)c1`
< 100 nM

###

Entries and their IC50
Biological target: CDK7/Cyclin H/MNAT1 (Homo sapiens)
Test: Enzymatic assay for CDK7 (LANCE Ultra kinase assay, FRET based)
Conditions: ATP at Km

The following compounds have reported results that may help.
C=C(Cl)C(=O)Nc1ccc2c(-c3ccccc3CNc3nc(NC[C@H]4CCNC[C@@H]4O)nc4c(C(C)C)cnn34)nccc2c1 [Compound 206] = < 0.1 µM
C/C=C/C(=O)Nc1ccc2c(ccn2-c2ccccc2CNc2nc(NC[C@H]3CCNC[C@@H]3O)nc3c(C(C)C)cnn23)c1 [Compound 74] = < 0.1 µM
CC(C)c1cnn2c(NCc3cccc(-c4cc5cc(NC(=O)/C=C/CN(C)C)ccc5[nH]4)c3)nc(N3CCC(N)CC3)nc12 [Compound 23] = < 0.1 µM
COC1CC2CCC(C1)N2c1cc(NCc2ccccc2-c2nccc3cc(NC(=O)/C=C/CN(C)C)ccc23)n2ncc(C(C)C)c2n1 (centres unmarked) [Compound 125] = 0.1 to 1 µM

Consider the additional compound presented here.
Please list IC50 recorded for the compound CC(C)c1cnn2c(NCc3ccccc3-c3nccc4cc(NC(=O)/C=C/CN(C)C)ccc34)nc(NCC3CCOCC3)nc12 [Compound 43]
0.1 to 1 µM

###

Molecular target: 28 CDKs family protein kinases (Homo sapiens)
Construct: purchased ProQinase GmbH; host or cells: Sf9 insect cells or E. coli
Sequence (P11802 whole entry): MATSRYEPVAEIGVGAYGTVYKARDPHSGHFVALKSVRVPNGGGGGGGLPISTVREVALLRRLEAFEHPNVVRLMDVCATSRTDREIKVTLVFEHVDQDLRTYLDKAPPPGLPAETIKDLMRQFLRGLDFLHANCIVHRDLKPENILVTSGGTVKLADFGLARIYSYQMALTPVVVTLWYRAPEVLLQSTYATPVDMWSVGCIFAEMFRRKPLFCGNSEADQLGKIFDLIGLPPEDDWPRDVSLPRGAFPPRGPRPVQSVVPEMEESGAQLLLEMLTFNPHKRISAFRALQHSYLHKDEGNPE
Sequence (P30279 whole entry partner): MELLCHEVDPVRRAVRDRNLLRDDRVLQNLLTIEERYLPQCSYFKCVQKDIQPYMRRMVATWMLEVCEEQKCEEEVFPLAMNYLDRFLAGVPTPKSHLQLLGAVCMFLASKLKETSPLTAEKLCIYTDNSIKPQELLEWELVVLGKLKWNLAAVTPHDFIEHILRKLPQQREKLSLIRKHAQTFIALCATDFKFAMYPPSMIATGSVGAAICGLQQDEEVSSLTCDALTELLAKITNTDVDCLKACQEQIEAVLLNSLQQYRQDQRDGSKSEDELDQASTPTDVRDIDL
Assay: In vitro IC50 profile for CDKs family kinase (33PanQinase Activity Assay, ProQinase)
Assay type: biochemical
Conditions: CDK4/CycD2; read-out: CDK7 selectivity profile in CDKs family, IC50
pIC50: −log10 of the molar value.
VALUE TYPE: pIC50

Please list pIC50 recorded for the compound `CC(C)c1cnn2c(NCc3ccccc3-c3nccc4cc(NC(=O)/C=C/CN(C)C)ccc34)nc(N3CCC(N)CC3)nc12`
< 5.00

###

Target: CDK5/p25 (Homo sapiens, UniProt Q00535)
Sequence (Q00535 whole entry): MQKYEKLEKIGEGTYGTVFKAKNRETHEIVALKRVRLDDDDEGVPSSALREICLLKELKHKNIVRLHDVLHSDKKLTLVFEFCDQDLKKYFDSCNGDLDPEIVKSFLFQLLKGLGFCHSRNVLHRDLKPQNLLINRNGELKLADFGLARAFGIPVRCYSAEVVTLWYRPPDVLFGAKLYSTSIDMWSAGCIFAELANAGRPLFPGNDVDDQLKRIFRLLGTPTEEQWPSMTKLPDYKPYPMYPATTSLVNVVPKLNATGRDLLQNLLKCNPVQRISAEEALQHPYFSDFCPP
Sequence (Q15078 99-307 partner limits assumed): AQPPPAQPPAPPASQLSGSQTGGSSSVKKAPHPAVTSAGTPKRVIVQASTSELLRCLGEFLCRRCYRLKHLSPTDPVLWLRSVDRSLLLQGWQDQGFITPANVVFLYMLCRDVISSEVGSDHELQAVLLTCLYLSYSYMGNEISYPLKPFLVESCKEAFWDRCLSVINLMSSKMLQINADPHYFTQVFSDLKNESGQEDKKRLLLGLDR
Experiment: Enzymatic assay for CDK5 (LANCE Ultra kinase assay, FRET based)
Conditions: ATP at Km
VALUE TYPE: IC50

CC(C)c1cnn2c(NCc3ccccc3-c3nccc4cc(NC(=O)/C=C/CN(C)C)ccc34)nc(N3CCC(=O)CC3)nc12 [Compound 106] = > 1 µM
CC(C)c1cnn2c(NCc3cccc(OC4CCCN(C(=O)/C=C/CN(C)C)CC4)c3)nc(N3CCC(N)CC3)nc12 (racemic) [Compound 18] = 0.1 to 1 µM
CC(C)c1cnn2c(NCc3cccc(Oc4ccc(Cl)c(NC(=O)/C=C/CN(C)C)c4)c3)nc(N3CCC(N)CC3)nc12 [Compound 15] = 0.1 to 1 µM
C=C(Cl)C(=O)Nc1ccc2c(-c3ccccc3CNc3nc(N[C@H]4CC[C@H](OC)CC4)nc4c(C(C)C)cnn34)nccc2c1 [Compound 209] = > 1 µM
C=C(F)C(=O)Nc1ccc2c(-c3ccccc3CNc3nc(OC4CCC(C)(C)NC4)nc4c(C(C)C)cnn34)nccc2c1 (stereo not shown) [Compound 177] = > 1 µM
C=C(F)C(=O)Nc1ccc2c(-c3ccccc3CNc3nc(NC[C@H]4CCNC[C@H]4O)nc4c(C(C)C)cnn34)nccc2c1 [Compound 158] = > 1 µM
C=C(F)C(=O)Nc1ccc2c(-c3ccccc3CNc3nc(-c4cccc(OC5CCNC5)c4)nc4c(C(C)C)cnn34)nccc2c1 (racemic) [Compound 87] = > 1 µM
C/C=C/C(=O)Nc1ccc2c(-c3ccccc3CNc3nc(N4CCNCC4)nc4c(C(C)C)cnn34)nccc2c1 [Compound 71] = > 1 µM
CO[C@H]1CC[C@H](Nc2nc(NCc3c(C)cccc3-c3ccc4cccc(NC(=O)/C=C/CN(C)C)c4n3)n3ncc(C(C)C)c3n2)CC1 [Compound 127] = > 1 µM
C=C(F)C(=O)Nc1ccc2c(-c3ccccc3CNc3nc(N[C@H]4CC[C@H](CS(=O)(=O)NC)CC4)nc4c(C(C)C)cnn34)nccc2c1 [Compound 143] = > 1 µM

Please list IC50 recorded for the compound C=CC(=O)Nc1ccc2c(-c3ccccc3CNc3nc(N4CCC(N)CC4)nc4c(C(C)C)cnn34)nccc2c1 [Compound 46]
> 1 µM

Please list IC50 recorded for the compound C=C(F)C(=O)Nc1ccc2c(-c3ccccc3CNc3nc(NC[C@H]4CNC[C@@H]4O)nc4c(C(C)C)cnn34)nccc2c1 [Compound 83]
> 1 µM

Please list IC50 recorded for the compound C=C(F)C(=O)Nc1ccc2c(-c3ccccc3CNc3nc(N[C@H]4CCC(C)(C)NC4)nc4c(C(C)C)cnn34)nccc2c1 [Compound 171]
> 1 µM

###

Molecular target: CDK1/Cyclin B (Homo sapiens)
Construct: purchased Invitrogen PR4768C
Sequence (P06493 whole entry): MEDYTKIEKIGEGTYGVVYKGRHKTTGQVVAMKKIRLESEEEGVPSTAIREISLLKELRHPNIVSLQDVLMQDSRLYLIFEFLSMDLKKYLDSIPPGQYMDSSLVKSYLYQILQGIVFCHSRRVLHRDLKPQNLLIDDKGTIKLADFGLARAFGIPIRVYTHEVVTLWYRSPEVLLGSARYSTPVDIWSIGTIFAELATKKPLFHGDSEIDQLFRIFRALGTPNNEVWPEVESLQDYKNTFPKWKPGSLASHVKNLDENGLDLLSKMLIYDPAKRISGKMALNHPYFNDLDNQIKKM
Sequence (P14635 whole entry partner): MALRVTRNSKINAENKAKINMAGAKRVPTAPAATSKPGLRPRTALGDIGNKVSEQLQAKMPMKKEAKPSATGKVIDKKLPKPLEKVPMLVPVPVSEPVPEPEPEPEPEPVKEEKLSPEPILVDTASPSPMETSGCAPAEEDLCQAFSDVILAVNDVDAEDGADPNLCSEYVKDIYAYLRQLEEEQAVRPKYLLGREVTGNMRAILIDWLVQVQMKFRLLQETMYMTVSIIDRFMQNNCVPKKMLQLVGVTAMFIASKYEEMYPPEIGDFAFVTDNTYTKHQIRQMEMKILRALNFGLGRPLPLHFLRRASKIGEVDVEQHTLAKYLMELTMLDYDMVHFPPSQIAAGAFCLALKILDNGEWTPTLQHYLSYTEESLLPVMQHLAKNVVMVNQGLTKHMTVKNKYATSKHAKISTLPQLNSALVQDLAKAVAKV
Test: Enzymatic assay for CDK1 (LANCE Ultra kinase assay, FRET based)
Type: biochemical
Conditions: ATP at Km; read-out: CDK1 enzymatic activity IC50
pIC50: −log10 of the molar value.
VALUE TYPE: pIC50

The following compounds have reported results that may help.
C=C(F)C(=O)N1CCc2c(ccnc2-c2ccccc2CNc2nc(OC3CCC(C)(C)NC3)nc3c(C(C)C)cnn23)C1 (stereo not drawn) = < 6.00
CC(C)c1cnn2c(NCc3ccccc3-c3nccc4cc(NC(=O)/C=C/CN(C)C)ccc34)nc(NCC3CCNC(=O)C3)nc12 (racemic) = < 6.00

Please list pIC50 recorded for the compound CC(C)c1cnn2c(NCc3ccccc3-c3nccc4cc(NC(=O)/C=C/CN(C)C)ccc34)nc(N3CCC(O)C3)nc12 (racemic)
< 6.00

###

Test system: H460
Assay: Cellular H460 viability assay (CellTiter-Glo, 72 hours)
Format: cell-based
Conditions: Homo sapiens, NCI-H460; H460 cells
pIC50: −log10 of the molar value.
VALUE TYPE: pIC50

CC(C)c1cnn2c(NCc3ccccc3Oc3ccc(NC(=O)/C=C/CN(C)C)cc3)nc(N3CCC(N)CC3)nc12 = > 6.00
CC(C)c1cnn2c(NCc3cccc(OC4CCCN(C(=O)/C=C/CN(C)C)CC4)c3)nc(N3CCC(N)CC3)nc12 (racemic) = > 6.00
CC(C)c1cnn2c(NCc3ccccc3-c3nccc4c(NC(=O)/C=C/CN(C)C)cccc34)nc(N3CCC(N)CC3)nc12 = 5.00 to 6.00
CC(C)c1cnn2c(NCc3cccc(NC(=O)C4CCCN(C(=O)/C=C/CN(C)C)CC4)c3)nc(N3CCC(N)CC3)nc12 (racemic) = 5.00 to 6.00
CC(C)c1cnn2c(NCc3cccc(Oc4cccc(NC(=O)/C=C/CN(C)C)c4)c3)nc(N3CCC(N)CC3)nc12 = > 6.00

Answer with pIC50 of `CC(C)c1cnn2c(NCc3ccccc3-n3cc4cccc(NC(=O)/C=C/CN(C)C)c4n3)nc(N3CCC(N)CC3)nc12` measured for H460.
> 6.00

Answer with pIC50 of `CC(C)c1cnn2c(NCc3ccccc3-n3cc4cc(NC(=O)/C=C/CN(C)C)ccc4n3)nc(N3CCC(N)CC3)nc12` measured for H460.
5.00 to 6.00

Answer with pIC50 of `CC(C)c1cnn2c(NCc3cccc(Oc4ccc(Cl)c(NC(=O)/C=C/CN(C)C)c4)c3)nc(N3CCC(N)CC3)nc12` measured for H460.
> 6.00
